Hey, just so you know, these numbers are from ChEMBL document CHEMBL1159071.

target: Neuronal acetylcholine receptor subunit alpha-7 (Rattus norvegicus); experiment: Displacement of [125I]BTX from rat alpha7 nicotinic acetylcholine receptor expressed in GH4C1 cells; format: cell-based, GH4-C1
Sequence (Q05941 whole entry): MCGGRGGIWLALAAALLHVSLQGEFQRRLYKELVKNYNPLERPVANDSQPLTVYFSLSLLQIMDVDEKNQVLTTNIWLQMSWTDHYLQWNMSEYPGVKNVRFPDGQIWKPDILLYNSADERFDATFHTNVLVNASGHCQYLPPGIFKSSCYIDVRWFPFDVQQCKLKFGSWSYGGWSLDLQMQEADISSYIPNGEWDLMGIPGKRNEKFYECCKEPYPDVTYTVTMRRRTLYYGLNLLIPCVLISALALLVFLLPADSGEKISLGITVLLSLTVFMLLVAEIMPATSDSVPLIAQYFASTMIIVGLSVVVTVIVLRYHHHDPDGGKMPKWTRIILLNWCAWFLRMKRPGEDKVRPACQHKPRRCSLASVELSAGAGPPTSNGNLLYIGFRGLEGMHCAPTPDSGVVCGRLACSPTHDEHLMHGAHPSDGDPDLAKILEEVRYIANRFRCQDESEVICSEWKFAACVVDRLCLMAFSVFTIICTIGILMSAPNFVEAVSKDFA
Readout Name: pKi
Remember the convention: pKi equals -log10 of concentration in molar.

Smiles Text | pKi
c1ccc(-c2cnc3nc(N4CCN5CCC4CC5)oc3c2)cc1 | 8.15
Brc1ccc2oc(N3CCN4CCC3CC4)nc2c1 | 8.67
c1ccc(Oc2ccc3oc(N4CCN5CCC4CC5)nc3n2)cc1 | 7.76
c1ccc(-c2cnc3oc(N4CCN5CCC4CC5)nc3c2)cc1 | 8.64

Now consider a different compound.
Would you mind telling me what pKi value was observed for c1ncc(-c2cnc3nc(N4CCN5CCC4CC5)oc3c2)cn1 ? 7.22
